targetDesc: PDE V (Homo sapiens)
protocolText: PDE V inhibition
Type: biochemical
readoutType: IC50

>>> measurement("CCCOc1ccccc1-c1nc2cnccc2c(=O)[nH]1")
"550 nM"

* * *

targetDesc: PDE V (Homo sapiens)
protocolText: PDE V inhibition
Type: biochemical
statedConditions: read-out: PDE V IC50
pIC50: −log10 of the molar value.
Would you mind labelling by pIC50? At or over 6 is y, under is n.

>>> classname("O=c1[nH]c(-c2ccccc2O)nc2[nH]cnc12")
"n"
>>> classname("CNc1ncc2c(=O)[nH]c(-c3ccccc3OC)nc2n1")
"n"
>>> classname("COc1ccccc1-c1nc2cccnc2[nH]1")
"n"
>>> classname("CCCOc1ccccc1-c1nc2nc(N)ncc2c(=O)[nH]1")
"y"
>>> classname("CCOc1ccccc1-c1nc2[nH]cnc2c(=O)[nH]1")
"n"
>>> classname("CCCOc1ccccc1-c1nc2nc(NCC(C)O)ncc2c(=O)[nH]1 (centres unmarked)")
"y"
